system: SK-MEL-5; assay: NCI tumour cell line growth inhibition, 48 h
Calls of active or inactive are those of the source. No stated cut-off is given here; in the data, active = GI50 up to about 1.1 µM and inactive = higher. *1 amine or outer side, *2 acyl side, *3 side chain or, on linkers, in order; H or OH if unused. Where a SMILES comes first, the peptide text is derived from it. [ ]: non-standard residue; d: D form. The star is where a group is joined. ξ: configuration not given here. X43 = CCC(=O)CC(O)CC(C)CC(N[*:1])C(=O)[*:2]; ξLeu(3ξ-OH) = CC(C)C(O)C(N)C(=O)O; ξPro(4ξ-Me) = CC1CNC(C(=O)O)C1; X42 = CCC(C)/C=C/C(=O)*; Aib = CC(C)(N)C(=O)O; X44 = CC(CN(C)C)N*; βAla = NCCC(=O)O
Overview of recorded GI50 for various molecules

Here is how some molecules turned out for GI50.
| molecule | quantity | result |
| --- | --- | --- |
| CCC(C)(O)c1cn(-c2ccc(Cl)cc2)nn1 (stereo unspecified) | GI50 | > 100 µM (inactive) |
| S=C1NCCN1C(=S)Nc1ccccc1 | GI50 | > 100 µM (inactive) |
| CCOP(=O)(OCC)C(Cc1cn(S(=O)(=O)c2ccc(C)cc2)cn1)C(=O)O (stereo unspecified) | GI50 | > 100 µM (inactive) |

# returns recorded GI50 (system: SK-MEL-5) for CCC(=O)CC(O)CC(C)CC(NC(=O)C1CC(C)CN1C(=O)/C=C/C(C)CC)C(=O)NC(C(=O)NC(C)(C)C(=O)NC(CC(C)C)C(=O)NC(CC(C)C)C(=O)NC(C)(C)C(=O)NC(C)(C)C(=O)NCCC(=O)NC(C)CN(C)C)C(O)C(C)C (stereo unspecified) (X42-[ξPro(4ξ-Me)][X43][ξLeu(3ξ-OH)][Aib]LL[Aib][Aib][βAla]-X44; configuration not given here)
< 0.005 µM (active)

Consider next the molecule `COc1cc2c(cc1OC)C(=O)/C(=C/c1ccc(N(C)C)cc1)CC2` in the same way.
> 10 µM (inactive)

Consider next the molecule CC(=O)C(C(C)=O)=C1CCCC(O)O1 (stereo unspecified) in the same way.
> 100 µM (inactive)

Consider next the molecule `CC(C)OP(=O)(OC(C)C)c1nc(-c2ccccc2)n(-c2ccc([N+](=O)[O-])cc2)n1` in the same way.
> 100 µM (inactive)

Consider next the molecule COc1c(C)cc2c(c1O)C1C3[C@H]4SC[C@@]5(NCCC6=C5NC5C=CC=CC65)C(=O)OCC(c5c6c(c(C)c(OC(C)=O)c54)OCO6)N3[C@@H](O)C(C2)N1C (stereo partly specified) in the same way.
< 0.01 µM (active)

Consider next the molecule CCN1CCC(O)(/C=C/c2ccc(C(C)C)cc2)C(C(=O)/C=C/c2ccc(C(C)C)cc2)C1 (stereo unspecified) in the same way.
4.42 µM (inactive)

Consider next the molecule `COc1cccc2c(NNc3ccc(Cl)cc3)c3ccc([N+](=O)[O-])cc3nc12` in the same way.
12.4 µM (inactive)

Consider next the molecule CCCCC1CCCCCCc2[nH]c(/C=C3\N=C(c4ccc[nH]4)C=C3OC)cc21 (stereo unspecified) in the same way.
0.0128 µM (active)

Consider next the molecule `O=C1/C(=c2\c3ccccc3n3c(=O)c4ccccc4nc23)Nc2ccccc21` in the same way.
> 53.8 µM (inactive)

Consider next the molecule `FC(F)(F)c1ccc2c(c1)N(CCCNCCN1CCOCC1)c1ccccc1S2` in the same way.
3.8 µM (inactive)

Consider next the molecule COc1cccc(C2c3cc4c(cc3OC(N3CCCCC3)C2C)OCO4)c1O (stereo unspecified) in the same way.
3.62 µM (inactive)

Consider next the molecule `Cc1cccc(C)c1NC(=O)CCC(=O)NNC(=O)c1cc(O)c2ccccc2c1` in the same way.
32.3 µM (inactive)
